Just for reference, paper PMC10452110 is where these values come from.

System: Staphylococcus aureus (ATCC 25923)
EXPERIMENTAL DETAILS: Intrinsic antimicrobial activity (MIC) against S. aureus
Format: cell-based
ASSAY CONDITIONS: ATCC25923, S. aureus ATCC 25923, mean (n = 3), read-out: MIC S. a
MIC less than 20 µM is met; MIC greater than or equal to 20 µM is not met.

- MOLECULE: "O=C(Cc1c[nH]c2ccc(Br)cc12)NCCCNCCCCCCCCNCCCNC(=O)Cc1c[nH]c2ccc(Br)cc12.O=C(O)C(F)(F)F.O=C(O)C(F)(F)F [Compound 15d]"
  LABEL CLASS: "met"
- MOLECULE: "O=C(Cc1c[nH]c2c(F)cccc12)NCCCNCCCCCCCCCCNCCCNC(=O)Cc1c[nH]c2c(F)cccc12.O=C(O)C(F)(F)F.O=C(O)C(F)(F)F [Compound 18e]"
  LABEL CLASS: "met"
- MOLECULE: "Cc1cccc2c(CC(=O)NCCCNCCCCNCCCNC(=O)Cc3c[nH]c4c(C)cccc34)c[nH]c12.O=C(O)C(F)(F)F.O=C(O)C(F)(F)F [Compound 20a]"
  LABEL CLASS: "not met"
- MOLECULE: "COc1ccc2[nH]cc(CC(=O)NCCCNCCCCCCCCNCCCNC(=O)Cc3c[nH]c4ccc(OC)cc34)c2c1.O=C(O)C(F)(F)F.O=C(O)C(F)(F)F [Compound 16d]"
  LABEL CLASS: "not met"
- MOLECULE: "O=C(Cc1c[nH]c2ccccc12)NCCCNCCCCCCCCNCCCNC(=O)Cc1c[nH]c2ccccc12.O=C(O)C(F)(F)F.O=C(O)C(F)(F)F [Compound 14d]"
  LABEL CLASS: "not met"
- MOLECULE: "O=C(Cc1c[nH]c2c(F)cccc12)NCCCNCCCCNCCCNC(=O)Cc1c[nH]c2c(F)cccc12.O=C(O)C(F)(F)F.O=C(O)C(F)(F)F [Compound 18a]"
  LABEL CLASS: "met"
